- targetEntity: UniProtKB P34972
- testName: Displacement of [3H]CP-55940 from human CB2 expressed in CHO cells at 10 uM
- Format: cell-based
Activity for assorted compounds

A selection of reference data follows.
compound=CCCCCCCC/C=C\CCCCCCCCN1C(=O)C(c2ccccc2)(c2ccccc2)NC1=S readout=Activity val="< 10%"
compound=O=C1NC(c2ccccc2)(c2ccccc2)C(=O)N1CCc1ccccc1 readout=Activity val="< 20%"
compound=CCCCCCCCN1C(=O)NC(c2ccccc2)(c2ccccc2)C1=O readout=Activity val="< 20%"
compound="CCCCCCCN1C(=O)C(c2ccccc2)NC1=S (stereo unspecified)" readout=Activity val="< 20%"
compound=CC(C)CN1C(=O)C(c2ccccc2)(c2ccccc2)NC1=S readout=Activity val="< 10%"

# context switch: different compound, same Activity
Annotate the compound "CCCCN1C(=O)CNC1=O" with its measured Activity.
< 20%

* * *

- targetEntity: Cannabinoid receptor 2 (Homo sapiens)
- testName: Displacement of [3H]CP-55940 from human CB2 expressed in CHO cells at 10 uM
- Type: cell-based
readout: Activity

A selection of reference data follows.
compound="CCCCCCCN1C(=O)C(c2ccccc2)N(c2ccccc2)C1=O (stereo unspecified)" readout=Activity val="< 20%"
compound=O=C1NC(=S)NC1(c1ccccc1)c1ccccc1 readout=Activity val="< 10%"
compound=CCCCCCCCN1C(=O)NC(c2ccc(Br)cc2)(c2ccc(Br)cc2)C1=O readout=Activity val=21.1%
compound=COCCCN1C(=O)C(c2ccccc2)(c2ccccc2)NC1=S readout=Activity val="< 20%"
compound=O=C1CNC(=S)N1c1ccccc1 readout=Activity val="< 20%"

# context switch: different compound, same Activity
Answer with Activity of "CCCCCCCCCCCCCCCCCCN1C(=O)C(c2ccccc2)(c2ccccc2)NC1=S" measured for Cannabinoid receptor 2 (Homo sapiens).
< 10%

* * *

Activity for assorted compounds
- targetEntity: Cannabinoid receptor 1 (Homo sapiens) (UniProt P21554)
- testName: Displacement of [3H]SR141716A from human CB1 expressed in CHO cells at 10 uM
- Type: cell-based
Entry rule: numbers only, all in %.

A selection of reference data follows.
compound=CCCCCCCN1C(=O)C(c2ccc(Br)cc2)(c2ccc(Br)cc2)NC1=S val=34.2
compound="CCCCCCCN1C(=O)C(c2ccccc2)N(c2ccccc2)C1=O (stereo not drawn)" val=45.6
compound=CCCCCCN1C(=O)NC(c2ccccc2)(c2ccccc2)C1=O val=29.9
compound=CCCCCCCN1C(=O)C(c2ccccc2)(c2ccccc2)NC1=S val=28.8
compound=CCCCCCCCN1C(=O)NC(c2ccccc2)(c2ccccc2)C1=O val=25.1

Annotate the compound "CCCCN1C(=O)NC(c2ccc(Br)cc2)(c2ccc(Br)cc2)C1=O" with its measured Activity.
69.2

Annotate the compound "CCCCCCCN1C(=O)C(c2ccc(Cl)cc2)(c2ccc(Cl)cc2)NC1=S" with its measured Activity.
67.8

Annotate the compound "CC(C)CN1C(=O)C(c2ccccc2)(c2ccccc2)NC1=S" with its measured Activity.
34.6

* * *

- targetEntity: Fatty-acid amide hydrolase 1 (Rattus norvegicus) (UniProt P97612)
- Sequence (P97612 whole entry): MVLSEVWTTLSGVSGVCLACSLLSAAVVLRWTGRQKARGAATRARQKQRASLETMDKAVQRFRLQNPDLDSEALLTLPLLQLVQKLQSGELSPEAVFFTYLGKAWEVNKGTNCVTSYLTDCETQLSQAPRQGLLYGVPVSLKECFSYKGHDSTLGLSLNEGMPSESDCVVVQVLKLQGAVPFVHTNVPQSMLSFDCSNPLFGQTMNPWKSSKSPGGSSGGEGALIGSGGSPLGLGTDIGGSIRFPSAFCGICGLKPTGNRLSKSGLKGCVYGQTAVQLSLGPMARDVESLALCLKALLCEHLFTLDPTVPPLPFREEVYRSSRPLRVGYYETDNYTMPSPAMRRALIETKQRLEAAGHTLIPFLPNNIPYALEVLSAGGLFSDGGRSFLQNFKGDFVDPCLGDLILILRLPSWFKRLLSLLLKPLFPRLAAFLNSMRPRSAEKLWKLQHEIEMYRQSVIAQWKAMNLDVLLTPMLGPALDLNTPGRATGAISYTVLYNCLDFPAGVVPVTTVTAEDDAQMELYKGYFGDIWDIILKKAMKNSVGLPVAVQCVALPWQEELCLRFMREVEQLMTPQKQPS
- testName: Inhibitory activity against FAAH in rat brain homogenate at 100 uM
- Type: tissue-based
- conditionDescription: wistar
readout: Inhibition (%)
Entry rule: numbers only, all in %.

Annotate the molecule "O=C1CNC(=S)N1c1ccccc1" with its measured Inhibition.
25

Annotate the molecule "O=C1CNC(=O)N1c1ccccc1" with its measured Inhibition.
23

* * *

- targetEntity: UniProt P21554
- testName: Displacement of [3H]SR141716A from human CB1 expressed in CHO cells at 10 uM
- Type: cell-based
Activity for assorted compounds

A selection of reference data follows.
compound=O=C1N(CCCO)C(=S)NC1(c1ccccc1)c1ccccc1 val=20.8%
compound=CCCCN1C(=O)C(c2ccccc2)(c2ccccc2)NC1=S val=42.8%
compound=O=C1NC(c2ccccc2)(c2ccccc2)C(=O)N1CCc1ccccc1 val="< 20%"
compound="O=C1NC(c2ccccc2)C(=O)N1c1ccccc1 (stereo unspecified)" val="< 20%"
compound=O=C1NC(=S)NC1(c1ccccc1)c1ccccc1 val="< 15%"

# context switch: different compound, same Activity
Annotate the compound "CCN1C(=O)NC(c2ccccc2)(c2ccccc2)C1=O" with its measured Activity.
< 20%

* * *

- targetEntity: Cannabinoid receptor 1 (Homo sapiens) (UniProt P21554)
- testName: Displacement of [3H]SR141716A from human CB1 expressed in CHO cells at 10 uM
- Format: cell-based
readout: Activity (%)
Entry rule: numbers only, all in %.

A selection of reference data follows.
smi=O=C1NC(c2ccc(Cl)cc2)(c2ccc(Cl)cc2)C(=O)N1Cc1ccccc1 unittag=% val=72.2
smi=CCCCN1C(=O)NC(c2ccc(Cl)cc2)(c2ccc(Cl)cc2)C1=O unittag=% val=51.2
smi=CCCCCCCCN1C(=O)NC(c2ccc(C)cc2)(c2ccc(C)cc2)C1=O unittag=% val=24.5
smi=COCCCN1C(=O)C(c2ccccc2)(c2ccccc2)NC1=S unittag=% val=29.4
smi=CCCCCCCN1C(=O)NC(c2ccc(Cl)cc2)(c2ccc(Cl)cc2)C1=O unittag=% val=42.7

Annotate the compound "CCCCCCCN1C(=O)NC(c2ccccc2)(c2ccccc2)C1=O" with its measured Activity.
23.4

Annotate the compound "CCCCCN1C(=O)NC(c2ccccc2)(c2ccccc2)C1=O" with its measured Activity.
21.3

Annotate the compound "CCCCCCN1C(=O)C(c2ccccc2)(c2ccccc2)NC1=S" with its measured Activity.
21.9

Annotate the compound "CCCCCN1C(=O)C(c2ccccc2)(c2ccccc2)NC1=S" with its measured Activity.
27.6

* * *

- targetEntity: Cannabinoid receptor 2 (Homo sapiens)
- testName: Displacement of [3H]CP-55940 from human CB2 expressed in CHO cells at 10 uM
- Assay type: cell-based
Activity for assorted molecules

smi=CCCCCCCCN1C(=O)C(c2ccc(Cl)cc2)(c2ccc(Cl)cc2)NC1=S val="< 10%"
smi=CCCCN1C(=O)C(c2ccccc2)(c2ccccc2)NC1=S val="< 10%"
smi=CCCCCCCN1C(=O)NC(c2ccccc2)(c2ccccc2)C1=O val="< 20%"
smi=O=C1NC(c2ccccc2)(c2ccccc2)C(=O)N1Cc1ccccc1 val="< 20%"
smi=CCCCN1C(=O)NC(c2ccc(Br)cc2)(c2ccc(Br)cc2)C1=O val=23.1%

# context switch: different molecule, same Activity
Annotate the molecule "CCCCCCCCCCCCCCN1C(=O)NC(c2ccccc2)(c2ccccc2)C1=O" with its measured Activity.
< 20%

* * *

- targetEntity: UniProt P21554
- testName: Displacement of [3H]SR141716A from human CB1 expressed in CHO cells at 10 uM
- Assay type: cell-based
readout: Activity (%)
Entry rule: numbers only, all in %.

A selection of reference data follows.
smi=CCCCCCCCN1C(=O)NC(c2ccc(OC)cc2)(c2ccc(OC)cc2)C1=O unittag=% val=31.2
smi=CCCCN1C(=O)C(c2ccc(Br)cc2)(c2ccc(Br)cc2)NC1=S unittag=% val=73.8
smi=O=C1N(CCc2ccccc2)C(=S)NC1(c1ccccc1)c1ccccc1 unittag=% val=29.3

Answer with Activity of "CCCCCCCCN1C(=O)C(c2ccc(Cl)cc2)(c2ccc(Cl)cc2)NC1=S" measured for UniProt P21554.
36.6

* * *

- targetEntity: UniProtKB P34972
- testName: Displacement of [3H]CP-55940 from human CB2 expressed in CHO cells at 10 uM
- Type: cell-based
Activity for assorted compounds

A selection of reference data follows.
compound=O=C1NC(=O)C(c2ccccc2)(c2ccccc2)N1 val="< 20%"
compound=CCN1C(=O)C(c2ccccc2)(c2ccccc2)NC1=S val="< 10%"
compound="O=C1NC(c2ccccc2)C(=O)N1c1ccccc1 (stereo unspecified)" val="< 20%"
compound=CCCCCCCCN1C(=O)C(c2ccc(Br)cc2)(c2ccc(Br)cc2)NC1=S val="< 20%"
compound=O=C1N(Cc2ccccc2)C(=S)NC1(c1ccccc1)c1ccccc1 val="< 20%"

# context switch: different compound, same Activity
Annotate the compound "CCCCN1C(=O)CNC1=S" with its measured Activity.
< 20%

* * *

pIC50 for assorted compounds
- targetEntity: Fatty-acid amide hydrolase 1 (Rattus norvegicus, UniProt P97612)
- Sequence (P97612 whole entry): as above
The scale used: pIC50 is minus the common logarithm of the concentration in molar units.

smi=CCCCCCCCCCCCCCN1C(=O)C(c2ccccc2)(c2ccccc2)NC1=S targetentity="Fatty-acid amide hydrolase 1 (Rattus norvegicus, UniProt P97612)" val=6.05
smi=CCCCCCN1C(=O)NC(c2ccccc2)(c2ccccc2)C1=O targetentity="Fatty-acid amide hydrolase 1 (Rattus norvegicus, UniProt P97612)" val=5.00
smi=CCCCCCCCCCN1C(=O)C(c2ccccc2)(c2ccccc2)NC1=S targetentity="Fatty-acid amide hydrolase 1 (Rattus norvegicus, UniProt P97612)" val=5.87

# context switch: different compound, same pIC50
Answer with pIC50 of "CCCCCCCN1C(=O)NC(c2ccccc2)(c2ccccc2)C1=O" measured for Fatty-acid amide hydrolase 1 (Rattus norvegicus, UniProt P97612).
5.08
